- target desc: soluble ectodomain of sortilin-6his (Homo sapiens, UniProt Q99523, V650M)
- Construct: the soluble ectodomain of sortilin-6his is measured by microscale thermophoresis (MST)
- Sequence (Q99523 with tags, fused parts or gaps V650M): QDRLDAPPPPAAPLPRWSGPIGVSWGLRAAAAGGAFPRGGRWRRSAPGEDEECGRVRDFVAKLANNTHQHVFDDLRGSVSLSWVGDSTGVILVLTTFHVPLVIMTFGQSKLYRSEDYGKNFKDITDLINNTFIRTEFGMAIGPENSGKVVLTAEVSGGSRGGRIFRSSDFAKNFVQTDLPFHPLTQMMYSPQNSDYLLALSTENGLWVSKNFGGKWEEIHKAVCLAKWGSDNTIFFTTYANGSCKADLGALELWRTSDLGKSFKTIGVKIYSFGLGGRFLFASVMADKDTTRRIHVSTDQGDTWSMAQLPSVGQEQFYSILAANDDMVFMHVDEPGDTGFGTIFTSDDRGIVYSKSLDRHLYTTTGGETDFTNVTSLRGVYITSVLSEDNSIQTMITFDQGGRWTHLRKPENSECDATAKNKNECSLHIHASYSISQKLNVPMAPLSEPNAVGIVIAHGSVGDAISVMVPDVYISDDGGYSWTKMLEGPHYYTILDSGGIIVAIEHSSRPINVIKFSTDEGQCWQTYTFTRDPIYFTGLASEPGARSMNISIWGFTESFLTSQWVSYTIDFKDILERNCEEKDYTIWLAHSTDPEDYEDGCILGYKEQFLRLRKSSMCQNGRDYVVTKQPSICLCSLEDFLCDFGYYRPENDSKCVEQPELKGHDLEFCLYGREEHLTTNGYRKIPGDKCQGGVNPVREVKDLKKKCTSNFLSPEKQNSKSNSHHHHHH
- measurement description: MST binding to soluble ectodomain of sortilin-6his
- reported conditions: Table 4; small molecule bifunctional compounds; MST; read-out: KD score, binding to sortilin (Kd)
outcome measure: Kd

Worked cases, Kd given:
>>> result("CC(C)(C)CC[C@H](NC(=O)c1ccc(Oc2cccc(OCC(=O)NCCOCCOCCOCCOCCOCCOc3ncc(-c4ccc5c(n4)N(Cc4cccnc4C#N)C(C)(C)C5=O)cn3)c2)nc1)C(=O)O")
"1 to 10 nM"
>>> result("C[C@@H]1CN(c2ncc(-c3ccc4c(n3)N(Cc3cccnc3C#N)C(C)(C)C4=O)cn2)CCN1C(=O)COCCCCNC(=O)COc1cccc(Oc2ccc(C(=O)N[C@@H](CCC(C)(C)C)C(=O)O)cn2)c1")
"1 to 10 nM"
>>> result("Cc1nc2cc(F)c(-c3cnc(OCCCCCn4cc(COCCOCCOCCOCCNC(=O)c5ccc(Oc6cccc(OCC(=O)N[C@@H](CCC(C)(C)C)C(=O)O)c6)nc5)nn4)nc3)nc2c(N[C@H](C)c2cc(C#N)ccc2F)c1Cl")
"10 to 250 nM"
>>> result("C[C@@H]1CN(c2ncc(-c3ccc4c(n3)N(Cc3cccnc3C#N)C(C)(C)C4=O)cn2)CCN1C(=O)COCCCCCCNC(=O)COc1cccc(Oc2ccc(C(=O)N[C@@H](CCC(C)(C)C)C(=O)O)cn2)c1")
"1 to 10 nM"
>>> result("CC(C)(C)CC[C@H](NC(=O)COc1cccc(Oc2ccc(C(=O)NCCOCCNc3ncc(-c4ccc5c(n4)N(Cc4cccnc4C#N)C(C)(C)C5=O)cn3)cn2)c1)C(=O)O")
"< 1 nM"
>>> result("CC(C)(C)CC[C@H](NC(=O)c1ccc(Oc2cccc(OCC(=O)NCCOCCOCCOCCNc3ncc(-c4ccc5c(n4)N(Cc4cccnc4C#N)C(C)(C)C5=O)cn3)c2)nc1)C(=O)O")
"< 1 nM"

Could you share which Kd value was measured for `CC(C)(C)CC[C@H](NC(=O)c1ccc(Oc2cccc(C(=O)NCCOCCOCCOCCOCc3ccc(-c4cccc5ccncc45)c(OCCc4ccc(-c5cccc6ccncc56)cc4)c3)c2)nc1)C(=O)O` ?
1 to 10 nM

Same thing, different compound: `C[C@@H]1CN(c2ncc(-c3ccc4c(n3)N(Cc3cccnc3C#N)C(C)(C)C4=O)cn2)CCN1C(=O)Cn1cc(COCCOCCN2CCN(CCOCCOc3cccc(Oc4ccc(C(=O)N[C@@H](CCC(C)(C)C)C(=O)O)cn4)c3)CC2)nn1`
< 1 nM

Repeat for the following compound: `CC(C)(C)CC[C@H](NC(=O)c1ccc(Oc2cccc3c(C(=O)NCCCNC(=O)CCOCCOCCOCCOCCOCCNC(=O)CCCC[C@@H]4SC[C@@H]5NC(=O)N[C@@H]54)cccc23)nc1)C(=O)O`
10 to 250 nM

Also `C[C@@H]1CN(c2ncc(-c3ccc4c(n3)N(Cc3cccnc3C#N)C(C)(C)C4=O)cn2)CCN1C(=O)Cc1cn(CCCCCCCCCn2cc(-c3cccc(Oc4ccc(C(=O)N[C@@H](CCC(C)(C)C)C(=O)O)cn4)c3)nn2)nn1` , if possible.
< 1 nM

###

- target desc: streptavidin, bifunctional compound and sortilin-6his (UniProt P22629+Q99523, V650M)
- measurement description: TR-FRET ternary complex formation streptavidin / bifunctional peptide / sortilin-6his
- reported conditions: Table 2; […] incubation, HTRF ratio 665/620 nm
Residues, ends and D or L forms follow the SMILES beside them. *: point of attachment. Biotin = O=C1N[C@H]2[C@H](CS[C@H]2CCCCC(=O)*)N1
outcome measure: AUC score, TR-FRET measurements of ternary complex formation

>>> result("CC(C)C[C@H](NC(=O)[C@H](CC(C)C)NC(=O)[C@H](CCC(N)=O)NC(=O)[C@H](CCCNC(=N)N)NC(=O)CNC(=O)[C@H](CO)NC(=O)CNC(=O)CNC(=O)CNC(=O)CNC(=O)[C@H](CO)NC(=O)CNC(=O)CNC(=O)CCCC[C@@H]1SC[C@@H]2NC(=O)N[C@@H]21)C(=O)O [compound 141] (Biotin-GGSGGGGSGRQLL-OH)")
"+ (AUC < 5000)"
>>> result("CC(C)C[C@H](NC(=O)[C@H](CC(C)C)NC(=O)[C@H](CCC(N)=O)NC(=O)[C@H](CCCNC(=N)N)NC(=O)CNC(=O)CNC(=O)CNC(=O)[C@H](CO)NC(=O)CNC(=O)CNC(=O)CNC(=O)CNC(=O)[C@H](CO)NC(=O)CNC(=O)CNC(=O)CCCC[C@@H]1SC[C@@H]2NC(=O)N[C@@H]21)C(=O)O [compound 149] (Biotin-GGSGGGGSGGGRQLL-OH)")
"+ (AUC < 5000)"
